The measured values listed here are drawn from patent US20130261178A1.

Catalogue of Kd values
- ASSAY_SYSTEM: human beta3-adrenoceptor (Homo sapiens, UniProt P13945)
- Construct: expressed in transfected cells; host or cells: CHO cells
- Sequence (P13945 whole entry): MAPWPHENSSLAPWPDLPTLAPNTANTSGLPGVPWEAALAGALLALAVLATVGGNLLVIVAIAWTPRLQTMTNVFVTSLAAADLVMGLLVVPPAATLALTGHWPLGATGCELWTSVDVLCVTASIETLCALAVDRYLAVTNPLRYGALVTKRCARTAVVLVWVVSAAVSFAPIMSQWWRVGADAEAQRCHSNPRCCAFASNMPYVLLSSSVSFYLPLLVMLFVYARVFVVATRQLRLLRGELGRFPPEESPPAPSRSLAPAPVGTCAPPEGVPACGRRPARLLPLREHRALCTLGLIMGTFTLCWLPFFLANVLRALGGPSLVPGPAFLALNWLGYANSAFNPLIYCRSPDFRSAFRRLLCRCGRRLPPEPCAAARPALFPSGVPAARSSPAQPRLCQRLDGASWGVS
- METHOD_SUMMARY: 3H-CGP12177 whole-cell binding, CHO cells expressing human beta3-adrenoceptor
- TEST_SETTINGS: 3H-CGP 12177 whole cell binding, log KD, mean ± s.e.mean, read-out: Beta 3 Log KD (converted)
Dear colleague, please return just the value in µM, with no unit written.

>>> reported_value("O=C(Cc1ccc(O)cc1)NCCNCC(O)COc1ccc(OCCOCC2CC2)cc1 (centres unmarked) [46i]")
3.89
>>> reported_value("CCOCCOc1ccc(OCC(O)CNCCNC(=O)Nc2cccc(Cl)c2)cc1 (centres unmarked) [46f]")
7.24

Reported Kd of Cc1ccc(NC(=O)NCCNCC(O)COc2ccc(OCCOC3CCCC3)cc2)cc1 (centres unmarked) [47d] : 22.9

Memo: O=C(NCCNCC(O)COc1ccc(OCCOCC2CC2)cc1)Nc1cccc(Cl)c1 (centres unmarked) [46e] , reported Kd: 8.51

# Kd of O=C(Cc1ccccc1)NCCNCC(O)COc1ccc(OCCOC2CCCC2)cc1 (centres unmarked) [compound 49] = 4.37

---

- ASSAY_SYSTEM: beta1-adrenoceptor (Homo sapiens)
- Sequence (P08588 whole entry): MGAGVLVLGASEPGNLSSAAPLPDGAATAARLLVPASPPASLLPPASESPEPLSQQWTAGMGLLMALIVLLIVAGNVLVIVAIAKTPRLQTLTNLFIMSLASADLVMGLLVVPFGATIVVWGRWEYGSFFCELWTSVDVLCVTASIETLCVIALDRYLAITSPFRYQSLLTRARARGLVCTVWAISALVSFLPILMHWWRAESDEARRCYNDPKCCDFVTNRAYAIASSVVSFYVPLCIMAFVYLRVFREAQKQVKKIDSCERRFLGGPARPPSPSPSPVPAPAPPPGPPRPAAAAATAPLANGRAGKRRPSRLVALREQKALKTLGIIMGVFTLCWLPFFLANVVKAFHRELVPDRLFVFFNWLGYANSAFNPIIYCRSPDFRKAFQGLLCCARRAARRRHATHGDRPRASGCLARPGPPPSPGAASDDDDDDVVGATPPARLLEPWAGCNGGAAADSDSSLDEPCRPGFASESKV
- METHOD_SUMMARY: 3H-CGP12177 whole-cell binding, CHO cells expressing human beta1-adrenoceptor
- Parameters: expressed in transfected cells; host or cells: CHO cells
- TEST_SETTINGS: 3H-CGP 12177 whole cell binding, log KD, mean ± s.e.mean, read-out: Beta 1 Log KD (converted)
Structures can show the parent of a compound that is named as a salt.
PARAMETER: Kd (nM)
Your answer is read as nM, so omit the unit and give the number.

Examples with their reported Kd follow.
>>> reported_value("OC(CNCCOc1ccc(F)cc1)COc1ccc(OCCOC2CCCC2)cc1 (centres unmarked) [67d]")
9.33
>>> reported_value("O=C(NCCNCC(O)COc1ccc(OCCOC2CCCC2)cc1)Nc1ccc(O)c(F)c1 (centres unmarked)")
8.51
>>> reported_value("Nc1ccc(NC(=O)NCCNCC(O)COc2ccc(OCCOC3CCCC3)cc2)cc1 (centres unmarked) [60c]")
29.5
>>> reported_value("CCOCCOc1ccc(OCC(O)CNCCNC(=O)Nc2ccc(OCc3ccccc3)cc2)cc1 (centres unmarked) [45d]")
91.2
>>> reported_value("Oc1ccc(OCCNCC(O)COc2ccc(OCCOC3CCCC3)cc2)cc1 (centres unmarked) [65e]")
5.75
>>> reported_value("O=C(NCCNCC(O)COc1ccc(OCCOC2CCCC2)cc1)Nc1ccc(F)c(F)c1 (centres unmarked) [54a]")
9.55
>>> reported_value("O=C(NCCNCC(O)COc1ccc(OCCOC2CCCC2)cc1)c1ccccc1 (centres unmarked) [62a]")
69.2
>>> reported_value("O=C(Cc1ccc(Cl)cc1)NCCNCC(O)COc1ccc(OCCOC2CCCC2)cc1 (centres unmarked) [62l]")
7.59

Kindly consider the entry below.
For the compound O=C(NCCNCC(O)COc1ccc(OCCOC2CCCC2)cc1)Nc1cccc(C(=O)O)c1 (centres unmarked) [47aa, hydrochloride] , the measured Kd on beta1-adrenoceptor (Homo sapiens) was 77.6

---

PARAMETER: melting point

>>> reported_value("O=C(NCCNCC(O)COc1ccc(OCCOC2CCCC2)cc1)c1ccc(F)cc1 (stereo not drawn) [54i]")
"99 to 100 °C"

melting point in this record for O=C(NCCNCC(O)COc1ccc(OCCOCC2CC2)cc1)Nc1ccc(OCc2ccccc2)cc1 (stereo not drawn) (hydrate or solvate) [45a] : 131 to 133 °C

The recorded melting point for entry O=C(NCCNCC(O)COc1ccc(OCCOC2CCCC2)cc1)Nc1cccc(Br)c1 (stereo not drawn) [47o] equals 120 to 122 °C

Input O=C(NCCNCC(O)COc1ccc(OCCOC2CCCC2)cc1)c1ccccc1 (stereo not drawn) [62a] . Output melting point: 149 to 152 °C

The molecule listed as COc1ccc(NC(=O)NCCNCC(O)COc2ccc(OCCOC3CCCC3)cc2)cc1 (stereo not drawn) [47g] shows melting point equal to 121 to 125 °C

The molecule listed as O=C(Cc1cccc(Cl)c1)NCCNCC(O)COc1ccc(OCCOC2CCCC2)cc1 (stereo not drawn) [62k] has a reported melting point of 117 to 118 °C

Entry O=C(Cc1ccc(F)cc1)NCCNCC(O)COc1ccc(OCCOC2CCCC2)cc1 (stereo not drawn) [62i] , melting point reported as 114.5 to 115.5 °C

Lab note: measured melting point of O=C(NCCNCC(O)COc1ccc(OCCOC2CCCC2)cc1)Nc1ccccc1F (stereo not drawn) [47h] was 115 to 117 °C

Entry O=C(Cc1ccc(O)cc1)NCCNCC(O)COc1ccc(OCCOC2CCCC2)cc1 (stereo not drawn) [62v] — recorded melting point = 127.5 to 130 °C

---

- ASSAY_SYSTEM: human beta2-adrenoceptor (Homo sapiens, UniProt P07550)
- Construct: expressed in transfected cells; host or cells: CHO cells
- Sequence (P07550 whole entry): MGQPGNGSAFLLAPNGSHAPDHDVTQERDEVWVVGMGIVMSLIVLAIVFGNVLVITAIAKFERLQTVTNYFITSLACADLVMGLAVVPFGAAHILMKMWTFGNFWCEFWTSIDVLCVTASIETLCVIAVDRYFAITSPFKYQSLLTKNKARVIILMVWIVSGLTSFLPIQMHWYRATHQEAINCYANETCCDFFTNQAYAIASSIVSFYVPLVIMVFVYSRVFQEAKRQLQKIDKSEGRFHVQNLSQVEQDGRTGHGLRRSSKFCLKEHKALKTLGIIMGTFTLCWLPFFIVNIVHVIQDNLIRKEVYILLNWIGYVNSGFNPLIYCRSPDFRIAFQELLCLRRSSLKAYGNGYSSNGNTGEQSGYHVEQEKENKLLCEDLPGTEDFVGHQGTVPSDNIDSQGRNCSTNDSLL
- METHOD_SUMMARY: 3H-CGP12177 whole-cell binding, CHO cells expressing human beta2-adrenoceptor
- TEST_SETTINGS: 3H-CGP 12177 whole cell binding, log KD, mean ± s.e.mean, read-out: Beta 2 Log KD (converted)
PARAMETER: log10 of Kd (log10 of the value in nM)
Form field - Quantity: Kd; Unit: nM; Scale: log10

// known answers, use as guide
>>> reported_value("COC(=O)c1ccc(NC(=O)NCCNCC(O)COc2ccc(OCCOC3CCCC3)cc2)cc1 (stereo not drawn) [47z]")
3.31
>>> reported_value("Oc1ccc(OCCNCC(O)COc2ccc(OCCOC3CCCC3)cc2)cc1 (stereo not drawn) [65e]")
2.31
>>> reported_value("O=S(=O)(Cc1ccccc1)NCCNCC(O)COc1ccc(OCCOC2CCCC2)cc1 (stereo not drawn)")
2.97
>>> reported_value("COc1ccc(OCCNCC(O)COc2ccc(OCCOC3CCCC3)cc2)cc1 (stereo not drawn) [67e]")
2.90

Lookup result for CCCOCCOc1ccc(OCC(O)CNCCNC(=O)Nc2ccc(O)cc2)cc1 (stereo not drawn) [46n] ; measured log10 of Kd: 4.13

---

Collected Kd values appear next to each entry.
- ASSAY_SYSTEM: human beta3-adrenoceptor (Homo sapiens)
- Construct: expressed in transfected cells; host or cells: CHO cells
- METHOD_SUMMARY: 3H-CGP12177 whole-cell binding, CHO cells expressing human beta3-adrenoceptor
- TEST_SETTINGS: 3H-CGP 12177 whole cell binding, log KD, mean ± s.e.mean, read-out: Beta 3 Log KD (converted)
// units = µM; emit number, no label

Just so you know, measured Kd for O=C(NCCNCC(O)COc1ccc(OCCOC2CCCC2)cc1)Nc1ccccc1F (stereo not drawn) [47h] came out at 21.4

What the record says about O=C(NCCNCC(O)COc1ccc(OCCOC2CCCC2)cc1)c1ccc(O)cc1 (stereo not drawn) [54f] : Kd is 0.513

---

- ASSAY_SYSTEM: human beta3-adrenoceptor (Homo sapiens)
- Construct: expressed in transfected cells; host or cells: CHO cells
- METHOD_SUMMARY: 3H-CGP12177 whole-cell binding, CHO cells expressing human beta3-adrenoceptor
- TEST_SETTINGS: 3H-CGP 12177 whole cell binding, log KD, mean ± s.e.mean, read-out: Beta 3 Log KD (converted)
PARAMETER: Kd (µM)
Write the answer as a number in µM, unit excluded.

>>> reported_value("O=C(NCCNCC(O)COc1ccc(OCCOC2CCCC2)cc1)Nc1ccccc1Br (stereo not shown) [47n]")
14.8
>>> reported_value("CCOCCOc1ccc(OCC(O)CNCCNC(=O)Cc2ccccc2O)cc1 (stereo not shown) [46g]")
10
>>> reported_value("O=C(NCCNCC(O)COc1ccc(OCCOC2CCCC2)cc1)c1ccc(F)cc1 (stereo not shown) [54i]")
2.04
>>> reported_value("O=C(NCCNCC(O)COc1ccc(OCCOC2CCCC2)cc1)c1ccccc1F (stereo not shown) [54g]")
3.09
>>> reported_value("O=C(NCCNCC(O)COc1ccc(OCCOC2CCCC2)cc1)c1cccc(F)c1 (stereo not shown) [54h]")
1.12
>>> reported_value("CCOCCOc1ccc(OCC(O)CNCCNC(=O)Cc2cccc(O)c2)cc1 (stereo not shown) [46h]")
9.33
>>> reported_value("O=C(NCCNCC(O)COc1ccc(OCCOC2CCCC2)cc1)Nc1cccc(O)c1 (stereo not shown) [47u]")
6.92
>>> reported_value("Cc1ccccc1NC(=O)NCCNCC(O)COc1ccc(OCCOC2CCCC2)cc1 (stereo not shown) [47b]")
17.4
>>> reported_value("COc1ccccc1NC(=O)NCCNCC(O)COc1ccc(OCCOC2CCCC2)cc1 (stereo not shown) [47e]")
13.8

Below: the item to evaluate.
# Kd (compound: O=C(NCCNCC(O)COc1ccc(OCCOC2CCCC2)cc1)Nc1ccccc1O (stereo not shown) [47t] ) is 3.98
